tested on: Aphis craccivoral; test: Insecticidal activity against Aphis craccivoral by immersing (dipping aphids on bean sprout); type: in vivo; conditions: 500 ppm; immersing (dipped 5 seconds); counted after 24 hours; 23° C.
The label Condition met is reserved for mortality (%) (500 ppm) Aphis strictly under 40%; Condition not met covers values equal to or above it.

Recorded results for 5 molecules are shown here.
O=C(OC1CCC([N+](=O)[O-])=C2N(Cc3ccc(Cl)nc3)CCN21)c1cc(F)c(Cl)cc1Cl (centres unmarked)
Condition not met
CCOC1CCC([N+](=O)[O-])=C2N(Cc3ccc(Cl)nc3)CCCN21 (centres unmarked)
Condition met
CCOC1CCC([N+](=O)[O-])=C2N(Cc3cnc(Cl)s3)CCCN21 (centres unmarked)
Condition not met
CCC(C)OC1CCC([N+](=O)[O-])=C2N(Cc3ccc(Cl)nc3)CCCN21 (centres unmarked)
Condition met
CC(C)OC1CCC([N+](=O)[O-])=C2N(Cc3cnc(Cl)s3)CCCN21 (centres unmarked)
Condition not met

INPUT: Regarding O=C(OC1CCC([N+](=O)[O-])=C2N(Cc3ccc(Cl)nc3)CCN21)c1ccc(Cl)c(Cl)c1 (centres unmarked) , kindly confirm whether its mortality (%) (500 ppm) Aphis is beneath 40%.
OUTPUT: Condition met

INPUT: Find out if reported mortality (%) (500 ppm) Aphis for O=[N+]([O-])C1=C2N(Cc3cnc(Cl)s3)CCCN2C(OCCCl)CC1 (centres unmarked) is less than 40%
OUTPUT: Condition met

###

Consider the following compounds; for each one, report its mortality (%) (500 ppm) Aphis.
System: Aphis craccivoral
Test: Insecticidal activity against Aphis craccivoral by immersing (dipping aphids on bean sprout)
Assay type: in vivo
Details: 500 ppm; immersing (dipped 5 seconds); counted after 24 hours; 23° C.
Method: Test on the insecticidal activity of Compound Nos. 1-227 Aphis, which belongs to Homoptera and has a piercing-sucking mouthpart, is a common insect for agricultural plant. Aphis craccivoral was tested by the way of immersing. Test method: exactly weighed various samples were independently added to N,N-dimethylformamide to form a 10 g/L stock solution. […] The number of killed aphis was counted after 24 hours to calculate the mortality.
Reply with the number, then its unit.

Some compounds with known mortality (%) (500 ppm) Aphis results, for comparison:
O=[N+]([O-])C1=C2N(Cc3cnc(Cl)s3)CCN2C(OC2CCCCC2)CC1 (racemic) [Compound 40]
45%
O=[N+]([O-])C1=C2N(CC3CCOC3)CCCN2C(OCCCl)CC1 (centres unmarked) [Compound 102]
0%
C#CCOC1CCC([N+](=O)[O-])=C2N(CC3CCOC3)CCN21 (centres unmarked) [Compound 65]
47%
CC(C)(C)OC1CCC([N+](=O)[O-])=C2N(Cc3cnc(Cl)s3)CCN21 (racemic) [Compound 34]
100%
CCOC1CCC([N+](=O)[O-])=C2N(CC3CCOC3)CCCN21 (centres unmarked) [Compound 101]
76%

// input: 3 compounds below; output: mortality (%) (500 ppm) Aphis for each
1. O=[N+]([O-])C1=C2N(Cc3ccc(Cl)nc3)CCCN2C(OC(C(F)(F)F)C(F)(F)F)CC1 (centres unmarked) [Compound 78]
2. COC1CCC([N+](=O)[O-])=C2N(Cc3cnc(Cl)s3)CCN21 (racemic) [Compound 24]
3. O=[N+]([O-])C1=C2N(Cc3cnc(Cl)s3)CCCN2C(OCC(F)(F)F)CC1 (centres unmarked) [Compound 89]

OUTPUT:
["68%", "100%", "100%"]
